# Test system: FGFR1
# testContext: concentration: 1 μM, replicates: in singlicate; n = 1;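 note: KINOMEscan kinase panel screen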
Entries and their measured %Inh follow.
// note: answer is a bare numeric in %

Reference set (5 entries):
> print(dat)
                                   compound  quantitativereadout
1  CS(=O)(=O)c1cccc(CNc2nc(Nc3ccc4c(c3)CCC(=O)N4)ncc2C(F)(F)F)c1                   63
2  O=C(Nc1n[nH]c2nc(-c3ccccc3O)ccc12)C1CC1 [SB-711880]                   31
3  Cl.Cl.NC(CNC(=O)c1cc(Br)c(-c2ccnc3[nH]ccc23)s1)c1ccccc1 (centres unmarked) [GSK1322949]                   45
4  COc1cccc2c(-c3ccncc3)c(-c3ccc(F)cc3)nn12 [GW468513]                   11
5  Cl.O=C(Nc1ccc(Oc2ccc3[nH]c(NC(=O)c4ccco4)nc3c2)cc1)Nc1cc(C(F)(F)F)ccc1F [GW683134]                   40

Please examine the following record next.
For O=C(O)C(F)(F)F.O=c1[nH]ccc2nc(N[C@@H]3CCNC3)nc(Nc3ccc4c(c3)S(=O)(=O)CC4)c12 [GSK2181306] , what is its reported %Inh?
4

###

# System: FRK
# testContext: concentration: 1 μM, replicates: in singlicate; n = 1
Entries and their measured %Inh follow.
// note: answer is a bare numeric in %

> print(dat)
                             chemicalsmiles  quantitativereadout
1  Cc1ccc(NC(=O)c2ccc(Cl)c(Cl)c2)cc1-c1ccc(C(=O)Nc2ccncc2)cc1                   82
2  CC(C)(C)c1ccc(C(=O)Nc2cn3cc(-n4ccnc4)ccc3n2)cc1                   10
3   O=C1NC(=O)C(c2ccccc2Cl)=C1Nc1cccc(Cl)c1                   15

For `Nc1ncc(-c2cn[nH]c2)c2scc(-c3ccc4c(c3)CCN4C(=O)Cc3ccccc3)c12` , what is its reported %Inh?
38

###

# Tested on: LKB1
# Construct: gene STK11
# testContext: concentration: 1 μM, replicates: in singlicate; n = 1
Entries and their measured %Inh follow.
// note: answer is a bare numeric in %

Reference set (4 entries):
> print(dat)
                             chemicalsmiles  observedproperty  quantitativereadout
1  O=C(Nc1c(F)cccc1F)c1cc(C(=O)c2ccccc2F)c[nH]1              %Inh                    0
2                     CN(C)c1ncnc2nc[nH]c12              %Inh                    0
3  Cn1cc(-c2cnc(N)c3c(-c4ccc5c(c4)CCN5C(=O)Cc4ccccc4)csc23)cn1              %Inh                    0
4  CS(=O)(=O)c1cccc(CNc2nc(Nc3ccc4c(c3)CCC(=O)N4)ncc2C(F)(F)F)c1              %Inh                   34

Please examine the following record next.
For `Cc1ccc(O)cc1Nc1ccnc2cc(-c3ccc(CN4CCCCC4)o3)ccc12` , what is its reported %Inh?
0

###

# Tested on: SNRK
# testContext: concentration: 1 μM, replicates: in singlicate; n = 1
observedProperty: %Inh (%)
// note: answer is a bare numeric in %

For CCn1c(-c2nonc2N)nc2c(-c3ccccc3)ncc(OCCCN)c21.O=C(O)C(F)(F)F.O=C(O)C(F)(F)F [GSK260205] , what is its reported %Inh?
57

For Cn1cc(-c2ccc3c(c2)CCN3C(=O)Cc2cc(F)cc(C(F)(F)F)c2)c2c(N)ncnc21 [GSK2635225] , what is its reported %Inh?
0

For CN(c1ccc(NC(=O)N2CCN(CCCN3CCOCC3)CC2)cc1)c1ccnc(Nc2ccc(CS(C)(=O)=O)cc2)n1.Cl [GW830899] , what is its reported %Inh?
0

For CC(C)c1nc(-c2cccc(NS(=O)(=O)c3c(F)cccc3F)c2)c(-c2ccnc(Nc3ccc(N4CCOCC4)nc3)n2)s1.Cl [GSK1723980] , what is its reported %Inh?
0

For CN(C)c1ncnc2nc[nH]c12 [SKF-31736] , what is its reported %Inh?
0

For O=C1NC(=O)C(c2ccccc2Cl)=C1Nc1cccc(Cl)c1 [SB-342409] , what is its reported %Inh?
11

For COC(=O)Nc1nc2cc(Oc3ccc(NC(=O)Nc4cccc(SC)c4)cc3)ccc2[nH]1.Cl [GW697999] , what is its reported %Inh?
0

For CN(C)CCNS(=O)(=O)c1ccc(-c2ccnc3[nH]ccc23)cc1 [GSK977620] , what is its reported %Inh?
0

For Cc1cccc(Nc2nc(NCCN)ncc2C(N)=O)c1 [GSK1292139] , what is its reported %Inh?
0

For CNc1nccc(-c2ccc3c(N)n[nH]c3c2)n1 [GSK2206003] , what is its reported %Inh?
0

For Cc1ccc(NC(=O)c2ccnc(N3CCCCC3)c2)cc1-c1ccc(C(=O)NCC2CC2)cc1 [GW775610] , what is its reported %Inh?
0

###

# Test system: SRMS
# testContext: concentration: 1 μM, replicates: in singlicate; n = 1
observedProperty: %Inh
# output: numeric value plus its unit

> print(dat)
                                   compound  targetundertest  result
1                     CN(C)c1ncnc2nc[nH]c12             SRMS     20%
2  c1ccc(Oc2ccc(Nc3ccnc4cc(-c5ccc(CN6CCCCC6)o5)ccc34)cc2)nc1             SRMS   94.2%

For `Cc1ccccc1CC(=O)N1CCc2cc(-c3cn(C)c4ncnc(N)c34)ccc21` , what is its reported %Inh?
0%

For `Nc1ncnc2scc(-c3ccc(NC(=O)Cc4cc(F)ccc4F)cc3)c12.O=C(O)C(F)(F)F` , what is its reported %Inh?
30%

For Cl.Cl.NCC(NC(=O)c1cc(-c2cccnc2)c(-c2ccnc3[nH]ccc23)s1)c1ccccc1 (centres unmarked) , what is its reported %Inh?
0%

###

# Tested on: YSK1
# Construct: gene STK25
# testContext: concentration: 1 μM, replicates: in singlicate; n = 1
observedProperty: %Inh
# output: numeric value plus its unit

> print(dat)
                             chemicalsmiles  result
1  COc1cc(Nc2ccnc3cc(-c4ccncc4)ccc23)cc(OC)c1OC.Cl      0%
2  CCNC(=O)/C=C/c1n[nH]c2cc(Sc3ccccc3C(=O)NC)ccc12      0%
3  COc1cccc(-c2nc(-c3ccccc3)[nH]c2-c2ccncc2)c1    100%
4  COc1ccc(C2=C(Nc3cccc(O)c3)C(=O)NC2=O)cc1      0%

Please examine the following record next.
For `Cl.N#CCc1ccc(Nc2nccc(Nc3ccc(Oc4ccccc4)cc3)n2)cc1` , what is its reported %Inh?
0%

###

# Test system: ABL1-nonphosphorylated
# testContext: concentration: 1 μM, replicates: in singlicate; n = 1
observedProperty: %Inh (%)
// note: answer is a bare numeric in %

Reference set (4 entries):
> print(dat)
                             chemicalsmiles  observedproperty  quantitativereadout
1  CCNC(=O)/C=C/c1n[nH]c2cc(Sc3ccccc3C(=O)NC)ccc12              %Inh                 98.5
2  Nc1ncc(-c2cn[nH]c2)c2scc(-c3ccc4c(c3)CCN4C(=O)Cc3ccccc3)c12              %Inh                 99.2
3  Cc1ccccc1CC(=O)N1CCc2cc(-c3cn(C)c4ncnc(N)c34)ccc21              %Inh                   50
4  Cc1ccc(NC(=O)c2ccc(Cl)c(Cl)c2)cc1-c1ccc(C(=O)Nc2ccncc2)cc1              %Inh                   26

Record `Cl.N#CCc1ccc(Nc2nccc(Nc3ccc(Oc4ccccc4)cc3)n2)cc1` : what is its %Inh with ABL1-nonphosphorylated?
0

Record `CN(c1ccc(NC(=O)Nc2cccc(Cl)c2)cc1)c1ccnc(N)n1.Cl` : what is its %Inh with ABL1-nonphosphorylated?
0

###

# System: YANK1
# Construct: gene STK32A
# testContext: concentration: 1 μM, replicates: in singlicate; n = 1
observedProperty: %Inh (%)
// note: answer is a bare numeric in %

For `Nc1cccc(-c2ccc3c(N)n[nH]c3c2)c1` , what is its reported %Inh?
9

For Cl.Cl.NC(CNC(=O)c1cc(Br)c(-c2ccnc3[nH]ccc23)s1)c1ccccc1 (stereo not shown) , what is its reported %Inh?
22

For `Cc1cccc(Nc2nc(NCCN)ncc2C(N)=O)c1` , what is its reported %Inh?
9

For Cc1ccc(-c2ccc3occ(-c4ccc(S(C)=O)cc4)c3c2)nn1 (stereo not shown) , what is its reported %Inh?
0

For `Cn1cc(-c2ccc3c(c2)CCN3C(=O)Cc2cc(F)cc(F)c2F)c2c(N)ncnc21` , what is its reported %Inh?
29

For `COC(=O)Nc1nc2ccc(Oc3ccc(CC(=O)Nc4cc(C(F)(F)F)ccc4F)cc3)cc2[nH]1` , what is its reported %Inh?
9

For `COc1cccc(C2=C(Nc3cccc(O)c3)C(=O)NC2=O)c1` , what is its reported %Inh?
0

For `O=C(Nc1c(F)cccc1F)c1cc(C(=O)c2ccccc2F)c[nH]1` , what is its reported %Inh?
1

For `CN(C)c1ncnc2nc[nH]c12` , what is its reported %Inh?
0

For `CN(C)CCNS(=O)(=O)c1ccc(-c2ccnc3[nH]ccc23)cc1` , what is its reported %Inh?
21

For `CN1CCN(Cc2ccc(NC(=O)Nc3ccc(N(C)c4ccnc(Nc5ccc(CS(C)(=O)=O)cc5)n4)cc3)cc2)CC1.Cl` , what is its reported %Inh?
19

For `Cc1ccc(O)cc1Nc1ccnc2ccc(C(C)(C)C)cc12` , what is its reported %Inh?
29

For `COc1ccc(C)c(Nc2ccnc(Nc3ccc(-c4cnc[nH]4)cc3)n2)c1.Cl` , what is its reported %Inh?
0

For `COc1ccc(C2=C(Nc3cccc(O)c3)C(=O)NC2=O)cc1` , what is its reported %Inh?
0
